Listed below: Population Fragmented Nuclei (%) values for each entry.
system: Fibroblast; test: Multiplex assay against human fibroblast; type: toxicity, cell-based; conditions: 24 h, 1 µM, compound concentration 1 uM, replicate 1
// return numeric value only (unit: %, not printed)

{"compound": "CNC(=O)Nc1ccc(-c2nc(N3CC4CCC(C3)O4)c3cnn(C4CCC5(CC4)OCCO5)c3n2)cc1", "metricName": "Population Fragmented Nuclei (%)", "unitInfo": "%", "quantitativeReadout": 30}
{"compound": "CC(C)Oc1ccccc1C(=O)Nc1ccccc1C(=O)Nc1cccc(S(=O)(=O)C(F)(F)F)c1", "metricName": "Population Fragmented Nuclei (%)", "unitInfo": "%", "quantitativeReadout": 25}
{"compound": "C[C@]12CC[C@@H]3c4ccc(O)cc4CC[C@H]3[C@@H]1CC[C@@H]2O", "metricName": "Population Fragmented Nuclei (%)", "unitInfo": "%", "quantitativeReadout": 33}

Query block: Find the measured Population Fragmented Nuclei (%): item COc1ccc(-c2ccc3ncc4c(c3c2)n(-c2ccc(N3CCNCC3)c(C(F)(F)F)c2)c(=O)n4C)cn1.O=C(O)/C=C\C(=O)O , target or system Fibroblast.
Result block: 45
